Target: T1, glutathione S-transferase (GST)-SNCG fusion protein (human, UniProt O76070 1-127)
T1 construct: Expressed in E. coli BL21 (DE3), eluted with reduced glutathione; Used as analyte in SPR, in the cell in ITC and as bait in the GST pull-down; not shown: glutathione S-transferase tag encoded by the pGEX-4T-3 vector (Amersham Biosciences); vector linker with thrombin site between GST and the BamH1 site
T1 sequence (O76070 whole entry, the tested form may be a part): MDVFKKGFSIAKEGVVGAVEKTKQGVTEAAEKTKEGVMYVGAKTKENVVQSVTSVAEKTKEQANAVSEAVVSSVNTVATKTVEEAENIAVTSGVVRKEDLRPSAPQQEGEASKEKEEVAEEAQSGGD
Assay: SPR, ANK peptide immobilised, GST-SNCG analyte, apparent overall Kd
pKd: −log10 of the molar value.

{"BINDER": "Ac-KGNSALHVASQHGHLGCIQTLVRYGANVTMQNHG-NH2 (For SPR it was immobilised on a CM5 chip by ligand thiol coupling; also called ankyrin repeat-like peptide) [ANK peptide KGNSALHVASQHGHLGCIQTLVRYGANVTMQNHG (SEQ ID NO:1)]", "pKd": 4.13}
